Data origin: ChEMBL document CHEMBL1156682

assay-remarks: Antioxidant activity assessed as hydroxyl radical scavenging activity at 150 uM/L after 2 hrs
Assay type: functional
Each record here notes measured Activity.
measurement-label: Activity

{"columns": ["compound", "measurement"],
 "data": [
  ["CC1=C2C(=O)Nc3ccccc3C2NC(=O)N1C (stereo unspecified)", "83.7%"],
  ["CCN1C(=O)NC2C(=C1C)C(=O)Nc1c(Cl)cccc12 (stereo unspecified)", "84.4%"],
  ["CCN1C(=O)NC2C(=C1C)C(=O)Nc1ccccc12 (stereo unspecified)", "86.5%"],
  ["CCN1C(=O)NC2C(=C1C)C(=O)Nc1cccc(F)c12 (stereo unspecified)", "80.2%"],
  ["CC1=C2C(=O)Nc3cccc(Cl)c3C2NC(=S)N1C (stereo unspecified)", "89.8%"],
  ["CC1=C2C(=O)Nc3cccc(F)c3C2NC(=S)N1C (stereo unspecified)", "81.5%"]
]}
